Source listed as ChEMBL document CHEMBL1781930.

assay.protocol: Cytotoxicity against human embryonic lung cells
Format: cell-based
property.label: MCC
Kindly format the answer as number then unit.

## Input Please report the measured MCC for COC(=O)c1c(C)nc(NCc2ccccc2)nc1-c1ccccc1
## Output 4 µg/mL
